QUANTITY NAME: melting point

Cc1nc(N)c2c(n1)OC(C)(C)C(c1ccc([C@H]3CC[C@H](CC(=O)NS(C)(=O)=O)CC3)cc1)=N2 [Example 2-134] :: 225 to 226 °C

Request: What melting point value was documented for this compound, Nc1ncnc2c1N=C(c1ccccn1)CO2 [Example 1-16] ?
Response: 215 °C

Request: Need melting point of Cc1nc(N)c2c(n1)OC(C)(C)C(c1ccc([C@H]3CC[C@H](CC(=O)O)CC3)c(F)c1)=N2 [Example 6-9] , thanks.
Response: > 269 °C

Request: # get_value(readout='melting point', item= CC1(C)Oc2ncnc(N)c2N=C1c1ccc(C2CCC(O)CC2)cc1 (stereo not drawn) )
Response: 246 to 248 °C

Request: Look at this compound and give its reported melting point. CC1(C)Oc2ncnc(N)c2N=C1c1ccc([C@H]2CC[C@H](CC(=O)N3CCOCC3)CC2)cc1 [Example 2-95]
Response: 199 to 200 °C

Request: Which value of melting point has been reported for CN(CCO)C(=O)C[C@H]1CC[C@H](c2ccc(C3=Nc4c(N)ncnc4OC3(C)C)cc2)CC1 [Example 2-99] in the records?
Response: 113 to 115 °C

====

Entries and their measured pIC50 follow.
Target: human DGAT1 (Homo sapiens, UniProt O75907)
Sequence (O75907 1-488): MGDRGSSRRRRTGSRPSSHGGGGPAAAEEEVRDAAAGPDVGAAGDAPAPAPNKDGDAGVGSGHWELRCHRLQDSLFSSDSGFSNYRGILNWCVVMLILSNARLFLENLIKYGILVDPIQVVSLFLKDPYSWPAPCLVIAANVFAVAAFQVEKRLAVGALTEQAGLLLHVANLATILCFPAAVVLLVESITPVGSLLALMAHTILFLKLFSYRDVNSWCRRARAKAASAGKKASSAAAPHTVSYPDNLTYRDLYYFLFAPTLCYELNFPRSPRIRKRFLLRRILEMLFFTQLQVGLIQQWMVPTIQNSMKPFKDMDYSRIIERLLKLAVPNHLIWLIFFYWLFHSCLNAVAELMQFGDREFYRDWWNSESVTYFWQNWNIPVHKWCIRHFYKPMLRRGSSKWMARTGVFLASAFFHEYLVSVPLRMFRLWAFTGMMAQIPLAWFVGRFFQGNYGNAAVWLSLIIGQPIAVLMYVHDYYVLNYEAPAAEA
pIC50: −log10 of the molar value.

Request: Quick check: pIC50 on human DGAT1 (Homo sapiens, UniProt O75907), item Cc1nc(N)c2c(n1)OC(C)(C)C(c1ccc([C@H]3CC[C@H](Cc4nc(=O)on4C)CC3)cc1)=N2 [Example 2-168] ?
Response: 7.00 to 8.00

Request: Field: pIC50 (human DGAT1 (Homo sapiens, UniProt O75907)). Entry: CN(CC(=O)O)C(=O)[C@H]1CC[C@H](c2ccc(C3=Nc4c(N)ncnc4OC3(C)C)cc2)CC1 [Example 2-219]
Response: 7.00 to 8.00

Request: Form field: pIC50 recorded for CN1CCN(C(=O)C=C2CCC(c3ccc(C4=Nc5c(N)ncnc5OC4(C)C)cc3)CC2)CC1 (stereo not shown) [Example 2-50] with human DGAT1 (Homo sapiens, UniProt O75907) (enter value)
Response: 7.00 to 8.00

Request: Reported pIC50 for human DGAT1 (Homo sapiens, UniProt O75907), given CC1(C)Oc2nc(C(F)(F)F)nc(N)c2N=C1c1ccc([C@H]2CC[C@H](Cc3nc(=O)o[nH]3)CC2)c(Cl)c1 [Example 6-25] ?
Response: 7.00 to 8.00

Request: API: value(readout= pIC50, system= human DGAT1 (Homo sapiens, UniProt O75907), query= Cc1nc(N)c2c(n1)OC(C)(C)C(c1ccc([C@H]3CC[C@H](CCC(=O)N4C[C@@H](O)[C@@H](O)C4)CC3)cc1)=N2 [Example 2-194] )
Response: 7.00 to 8.00

Where do the numbers come from? From patent US7244727B2.
